- experimental system: Dual specificity protein phosphatase 6 (Homo sapiens) (UniProt Q16828)
- Sequence (Q16828 whole entry, looked up): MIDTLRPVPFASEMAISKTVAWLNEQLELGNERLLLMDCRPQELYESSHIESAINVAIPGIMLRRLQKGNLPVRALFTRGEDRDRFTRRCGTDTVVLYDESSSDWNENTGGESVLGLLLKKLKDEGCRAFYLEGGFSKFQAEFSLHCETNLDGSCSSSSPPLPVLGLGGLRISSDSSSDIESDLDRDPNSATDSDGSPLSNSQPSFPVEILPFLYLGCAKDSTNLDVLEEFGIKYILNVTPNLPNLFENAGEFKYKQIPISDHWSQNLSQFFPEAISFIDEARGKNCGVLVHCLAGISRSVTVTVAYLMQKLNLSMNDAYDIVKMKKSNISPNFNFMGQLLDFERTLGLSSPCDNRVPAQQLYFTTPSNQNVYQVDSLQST
- assay procedure: Primary imaging screen for DUSP6 inhibitors that restore phospho-Erk in transfected HeLa cells, chemical complementation (AID 609);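 note: phospho-Erk level distribution per well compared with pooled transfected vehicle control wells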
- study conditions: HeLa MKP-3 transfected, phospho-Erk imaging KS statistic, at 10 µM, hits give high values
result type: inhibition (%)

compound="CC1(C)CC(n2[nH]c(=O)c3c2NC(=O)CSC3c2ccccc2)CCO1 (stereo unspecified)" u=% result_value=1.75
compound=COc1ccc(C(=O)N2CCCC2=O)cc1 u=% result_value=19
compound=CCOC(=O)[C@@]1(C#N)[C@@H]2C=CC(C(N)=O)=CN2[C@@H](C(N)=O)[C@@H]1c1cccc(Cl)c1 u=% result_value=11.4
compound=CCN(CC)CCCNC(=O)c1c(O)c2ccccc2n(Cc2ccccc2)c1=O u=% result_value=15.8
compound=CN1CCc2nc3sc(C#N)c(N)c3c(-c3cccs3)c2C1 u=% result_value=6.51
compound=CCN(CC)CCN=C(C)c1c(O)n(-c2ccccc2OC)c(=O)[nH]c1=O u=% result_value=-2.91
compound="CN1CC=C2C(C#N)=C(N)C(C#N)(C#N)C(c3ccncc3)C2C1 (stereo unspecified)" u=% result_value=67.6
compound=c1ccc(Cn2ccnc2)cc1 u=% result_value=8
compound=CCOC(=O)c1cc2c(cn1)[nH]c1ccccc12 u=% result_value=1.48
compound=COc1ccc(Cn2c(O)c(C=NCCCn3ccnc3)c(=O)[nH]c2=O)cc1 u=% result_value=4.25
compound=CCN(CC)c1ccc(N=Cc2c(O)n(-c3ccccc3C)c(=O)[nH]c2=O)cc1 u=% result_value=7.01
